- Target or system: GABAA1 (human α1β2γ2 GABAA receptor) (Homo sapiens, UniProt P14867+P18507)
- Construct: expressed in transfected cells; host or cells: Xenopus laevis oocytes injected with capped cRNA
- Sequence (P14867 28-456): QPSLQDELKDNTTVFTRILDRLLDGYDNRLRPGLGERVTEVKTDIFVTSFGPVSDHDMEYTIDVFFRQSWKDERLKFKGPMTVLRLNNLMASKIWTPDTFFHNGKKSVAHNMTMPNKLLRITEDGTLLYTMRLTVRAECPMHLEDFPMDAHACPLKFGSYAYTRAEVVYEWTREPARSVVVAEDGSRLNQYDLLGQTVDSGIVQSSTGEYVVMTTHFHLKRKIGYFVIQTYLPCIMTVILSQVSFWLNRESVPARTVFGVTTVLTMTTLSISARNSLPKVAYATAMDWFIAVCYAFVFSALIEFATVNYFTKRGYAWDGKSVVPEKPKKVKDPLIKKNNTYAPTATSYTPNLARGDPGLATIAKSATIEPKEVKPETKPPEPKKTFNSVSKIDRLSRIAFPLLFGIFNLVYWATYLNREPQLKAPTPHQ
- Sequence (P47870 25-512 partner limits assumed): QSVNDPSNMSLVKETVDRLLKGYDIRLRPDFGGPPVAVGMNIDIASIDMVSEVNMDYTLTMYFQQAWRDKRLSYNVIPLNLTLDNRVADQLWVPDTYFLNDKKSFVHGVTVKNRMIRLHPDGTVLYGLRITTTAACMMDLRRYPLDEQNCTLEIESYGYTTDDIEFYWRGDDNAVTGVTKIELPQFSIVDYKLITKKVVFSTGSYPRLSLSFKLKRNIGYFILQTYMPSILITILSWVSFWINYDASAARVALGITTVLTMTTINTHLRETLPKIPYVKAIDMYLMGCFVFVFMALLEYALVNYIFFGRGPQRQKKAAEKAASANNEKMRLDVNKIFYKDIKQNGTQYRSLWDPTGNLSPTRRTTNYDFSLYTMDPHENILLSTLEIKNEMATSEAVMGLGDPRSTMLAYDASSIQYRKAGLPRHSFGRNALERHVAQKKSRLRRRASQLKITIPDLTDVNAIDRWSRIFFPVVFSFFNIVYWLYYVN
- Sequence (P18507 40-475): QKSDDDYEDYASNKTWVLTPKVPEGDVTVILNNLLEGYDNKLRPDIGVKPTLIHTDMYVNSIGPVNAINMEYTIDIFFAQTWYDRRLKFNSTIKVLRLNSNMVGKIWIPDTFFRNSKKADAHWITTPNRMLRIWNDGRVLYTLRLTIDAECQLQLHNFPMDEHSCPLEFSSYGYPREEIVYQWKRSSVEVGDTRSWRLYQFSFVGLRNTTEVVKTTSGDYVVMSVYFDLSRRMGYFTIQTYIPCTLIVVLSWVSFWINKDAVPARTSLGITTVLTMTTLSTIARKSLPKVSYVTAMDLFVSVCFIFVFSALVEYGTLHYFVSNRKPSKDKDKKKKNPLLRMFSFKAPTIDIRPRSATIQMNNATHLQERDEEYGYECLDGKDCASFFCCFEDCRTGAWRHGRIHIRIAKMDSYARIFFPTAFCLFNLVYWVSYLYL
- Run description: Two-electrode voltage-clamp in Xenopus oocytes, potentiation of GABA EC10 current, GABAA1
- Format: cell-based
- Experimental conditions: percentage potentiation of GABA EC10 current divided by that of diazepam
Classes (Relative Potentiation for GABAA1): bottom bin (below -0.01), middle bin (-0.01 to below 0.1), top bin (0.1 or more)

Query: Quick check: band for `CCCNC(=O)c1nnc2c(-c3cccc(OC)c3OC)cccc2c1N`
Reply: bottom bin

Query: Now the same for `Nc1c(C(=O)NCC2CC2)nnc2c(-c3ccccc3)cccc12`
Reply: top bin

Query: Now the same for `CCCNC(=O)c1nnc2c(-c3cccc(C#N)c3)cccc2c1N`
Reply: middle bin

Query: Now the same for `CCCNC(=O)c1nnc2c(-c3cc(F)ccc3F)c(F)ccc2c1N`
Reply: middle bin

Query: Now the same for CCCNC(=O)c1nnc2c(-c3c(Cl)cccc3OC)cccc2c1N [drawing 410]
Reply: bottom bin

Query: Now the same for `CCNC(=O)c1nnc2c(-c3cnccc3OC)cccc2c1N`
Reply: bottom bin

Query: Now the same for `COc1cccc(F)c1-c1cccc2c(N)c(C(=O)NC3CC3)nnc12`
Reply: bottom bin

Query: Now the same for `CCCNC(=O)c1nnc2c(-c3cnccn3)cccc2c1N`
Reply: bottom bin

Query: Now the same for `CCCNC(=O)c1nnc2c(-c3cc(OC)cc(OC)c3)cccc2c1N`
Reply: top bin

Query: Now the same for `COc1ccc(-c2cccc3c(N)c(C(=O)NC4CCC4)nnc23)c(OC)c1`
Reply: middle bin

Query: Now the same for `CCCNC(=O)c1nnc2c(-c3cccc(Cl)c3)cccc2c1N`
Reply: top bin

Query: Now the same for `CCCNC(=O)c1nnc2c(-c3ccc4ccccc4c3)cccc2c1N`
Reply: top bin

Query: Now the same for `CCCNC(=O)c1nnc2c(-c3cccc(C(=O)O)c3)cccc2c1N`
Reply: bottom bin

Query: Now the same for `CCNC(=O)c1nnc2c(-c3cnc(OC)nc3OC)cccc2c1N`
Reply: middle bin

Query: Now the same for `CCCNC(=O)c1nnc2c(-c3ccccc3)c(F)ccc2c1N`
Reply: bottom bin

Query: Now the same for `CCCNC(=O)c1nnc2c(-c3cc(C(F)(F)F)ccc3Cl)cccc2c1N`
Reply: top bin

Query: Now the same for `CCCNC(=O)c1nnc2c(-c3cnc(OC)nc3OC)c(F)ccc2c1N`
Reply: top bin

Query: Now the same for `CCCNC(=O)c1nnc2c(-c3cccnc3F)cccc2c1N`
Reply: bottom bin

Query: Now the same for `CCNC(=O)c1nnc2c(-c3cc(C)ccc3OC)cccc2c1N`
Reply: top bin

Query: Now the same for `CCCNC(=O)c1nnc2c(-c3ccc(OC)cc3F)c(F)ccc2c1N`
Reply: middle bin

Query: Now the same for `CCCNC(=O)c1nnc2c(-c3ccc(OC)c(C)c3)cccc2c1N`
Reply: top bin

Query: Now the same for `CCCNC(=O)c1nnc2c(-c3cc(OC)cc(OC)c3)c(F)ccc2c1N`
Reply: top bin

Query: Now the same for `CCCNC(=O)c1nnc2c(-c3cccnc3)cccc2c1N`
Reply: bottom bin

Query: Now the same for `CCCNC(=O)c1nnc2c(-c3ccc(C)nc3F)cccc2c1N`
Reply: middle bin

Query: Now the same for `CCCNC(=O)c1nnc2c(-c3ccc(OC)c(OC)c3)cccc2c1N`
Reply: top bin

Query: Now the same for `CCCNC(=O)c1nnc2c(-c3ccccn3)cccc2c1N`
Reply: middle bin

Query: Now the same for `CCCNC(=O)c1nnc2c(-c3ccc(OC)cc3C(F)(F)F)cccc2c1N`
Reply: top bin

Query: Now the same for `CCCNC(=O)c1nnc2c(-c3cc(C)ccc3OC)c(Cl)ccc2c1N`
Reply: top bin

Query: Now the same for `CCCNC(=O)c1nnc2c(-c3cnc(OC)nc3)cccc2c1N`
Reply: bottom bin

Query: Now the same for `COc1ccncc1-c1cccc2c(N)c(C(=O)NC3CC3)nnc12`
Reply: middle bin

Query: Now the same for `CCCNC(=O)c1nnc2c(-c3ccc(C)nc3)cccc2c1N`
Reply: bottom bin

Query: Now the same for `CCCNC(=O)c1nnc2c(-c3cnc(OC)c(Cl)c3)cccc2c1N`
Reply: middle bin

Query: Now the same for `CCCNC(=O)c1nnc2c(-c3ccc(OC)cc3C(F)(F)F)c(F)ccc2c1N`
Reply: top bin

Query: Now the same for `CCCNC(=O)c1nnc2c(-c3cccc(C(=O)N4CCC4)c3)cccc2c1N`
Reply: top bin

Query: Now the same for `CCCNC(=O)c1nnc2c(-c3cncc(C(=O)N4CCC4)c3)cccc2c1N`
Reply: bottom bin

Query: Now the same for `CCCNC(=O)c1nnc2c(-c3ccncc3)cccc2c1N`
Reply: bottom bin

Query: Now the same for `CCCNC(=O)c1nnc2c(-c3cc(Cl)ccc3Cl)cccc2c1N`
Reply: top bin

Query: Now the same for `CCCNC(=O)c1nnc2c(-c3cn[nH]c3)cccc2c1N`
Reply: bottom bin

Query: Now the same for `CCCNC(=O)c1nnc2c(-c3cncc(OC)c3)cccc2c1N`
Reply: middle bin

Query: Now the same for `CCCNC(=O)c1nnc2c(-c3cc(C)ccc3OC)c(F)ccc2c1N`
Reply: top bin

Query: Now the same for CCCNC(=O)c1nnc2c(-c3c(Cl)cccc3OC)cccc2c1N [drawing 298]
Reply: middle bin

Query: Now the same for `CCCCNC(=O)c1nnc2c(-c3cnccc3OC)cccc2c1N`
Reply: top bin
